experiment: MTT cell viability (cytotoxicity) assay, A549; assay type: cell-based, human; conditions: human, A549 cells; 13-cis RA 30 μM
measurement name: viability at 24 h, 30 μM (%)
Only the number, expressed in %, is required.

What does the data say about its viability at 24 h, 30 μM? Entry: CC1=C(/C=C/C(C)=C/C=C/C(C)=C\C(=O)O)C(C)(C)CCC1 [13-cis retinoic acid, reference compound]
75

====

assay: MTT cell viability (cytotoxicity) assay, A549; type: cell-based, human; details: human, A549 cells; 13-cis RA 240 μM
measurement name: viability at 24 h, 240 μM (%)
Numbers only here, please. The scale is %.

Quick one: viability at 24 h, 240 μM for CC1=C(/C=C/C(C)=C/C=C/C(C)=C\C(=O)O)C(C)(C)CCC1 [13-cis retinoic acid, reference compound] ?
50
